Numbers sourced from patent US20250276077A1.

ADCC EC50 values for the binders below.
# SYSTEM: Human EphA2 (ephrin receptor A2) on cells (human, UniProt P29317 25-976)
# Sequence (P29317 25-976): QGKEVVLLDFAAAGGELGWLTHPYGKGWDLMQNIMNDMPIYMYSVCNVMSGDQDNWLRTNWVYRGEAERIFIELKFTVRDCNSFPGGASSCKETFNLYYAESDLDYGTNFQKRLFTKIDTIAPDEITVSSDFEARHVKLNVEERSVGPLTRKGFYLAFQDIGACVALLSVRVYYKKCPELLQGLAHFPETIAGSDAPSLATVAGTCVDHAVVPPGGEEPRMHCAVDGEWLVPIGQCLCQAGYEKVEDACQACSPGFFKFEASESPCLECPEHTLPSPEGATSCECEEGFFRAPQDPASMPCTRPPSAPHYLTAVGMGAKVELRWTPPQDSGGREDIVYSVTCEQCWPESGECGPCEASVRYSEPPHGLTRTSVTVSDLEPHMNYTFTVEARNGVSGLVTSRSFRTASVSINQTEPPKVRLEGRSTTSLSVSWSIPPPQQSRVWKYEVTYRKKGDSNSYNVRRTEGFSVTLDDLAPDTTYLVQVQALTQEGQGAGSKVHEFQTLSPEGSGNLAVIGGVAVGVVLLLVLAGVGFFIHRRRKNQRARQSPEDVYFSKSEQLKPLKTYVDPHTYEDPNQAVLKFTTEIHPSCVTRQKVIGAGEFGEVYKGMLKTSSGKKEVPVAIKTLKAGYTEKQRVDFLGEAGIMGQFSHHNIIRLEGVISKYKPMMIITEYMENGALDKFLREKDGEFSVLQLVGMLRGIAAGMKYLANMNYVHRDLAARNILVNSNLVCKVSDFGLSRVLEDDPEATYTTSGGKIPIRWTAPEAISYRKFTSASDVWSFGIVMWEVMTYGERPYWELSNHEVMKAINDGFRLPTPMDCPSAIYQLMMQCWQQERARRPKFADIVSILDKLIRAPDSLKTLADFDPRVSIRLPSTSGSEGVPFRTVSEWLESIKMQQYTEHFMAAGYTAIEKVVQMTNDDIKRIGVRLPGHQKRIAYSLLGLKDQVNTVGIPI
# EXPERIMENT SUMMARY: cell-based or functional assay
Respond numerically; units are nM and should not be typed.

These solved cases illustrate the format of a correct answer.
AB-010146 (antibody, mouse IgG2a, V domains shown) VH: QVQLQQWGAGLLKPSETLSLTCAVYGGSFSDYYWSWIRQPPGKGLEWIGEVNHRGSINYNNYNPSLKSRVTISVDTSKNQFSLKLTSVTAADTAVYYCAKPLRPHCTNGVCYSGDAFDIWGQGTMVTVSS VL: SYVLTQPPSVSVAPGQTARITCGGNNIGSKNVHWYQQKPGQAPVLVVYDDSDRPSGIPEQFSGSNSGNTATLTISRVEAGDEADYYCQVWDSSSDHLVFGGGTKLTVL; 66.8
AB-010147 (antibody, mouse IgG2a, V domains shown) VH: QVQLQQWGAGLLKPSETLSLTCAVYGGSFSDYYWSWIRQPPGKGLEWIGEVNHRGSINYNNYNPSLKSRVTISVDTSKNQFSLKLTSVTAADTAVYYCAKPLRPHCTNGVCYSGDAFDIWGQGTMVTVAS VL: SYVLTQPPSVSVAPGQTARITCGGNNIGSKNVHWYQQKPGQAPVLVVYDDSDRPSGIPERFSGSNSGNTATLTISRVEAGDEADYYCQVWDSSSDHLVFGGGTKLTVL; 79.4

Moving on to another binder below.
Request the reported ADCC EC50 associated with AB-010145 (antibody, mouse IgG2a, V domains shown) VH: QVQLQQWGAGLLKPSETLSLTCAVYGGSFSDYYWSWIRQPPGKGLEWIGEVNHRGSINYNNYNPSLKSRVTISVDTSKNQFSLKLSSVTAADTAVYYCAKPLRPHCTNGVCYSGDAFDIWGQGTMVTVAS VL: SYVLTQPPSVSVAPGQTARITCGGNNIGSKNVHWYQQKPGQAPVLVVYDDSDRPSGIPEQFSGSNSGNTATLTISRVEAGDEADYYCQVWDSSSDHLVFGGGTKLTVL
48.9
